Tested on: SH-SY5Y
protocol-notes: Neuroprotective activity against H2O2-induced human SH-SY5Y cells assessed as increase in cell viability at 10 uM preincubated for 30 mins followed by H2O2 addition and measured after 24 hrs by SRB assay
Assay type: functional, cell-based
condition-summary: time 24.5 hrs
Calls of active or inactive are those of the source. No cut-off for these calls is given here.
outcome-measure: Activity

[[record]]
structure_smiles_string = "CS(=O)(=O)[O-].O=C(/C=C/c1ccc(O)c(O)c1)NCCCCCCCCCC[n+]1ccc2ccccc2c1"
target_or_system = "SH-SY5Y"
result = "inactive"

[[record]]
structure_smiles_string = "CS(=O)(=O)[O-].Cc1cc[n+](CCCCCCCCCCNC(=O)/C=C/c2ccc(O)c(O)c2)cc1"
target_or_system = "SH-SY5Y"
result = "inactive"

[[record]]
structure_smiles_string = "CS(=O)(=O)[O-].Cn1cc[n+](CCCCCCCCCCNC(=O)/C=C/c2ccc(O)c(O)c2)c1"
target_or_system = "SH-SY5Y"
result = "inactive"

[[record]]
structure_smiles_string = "CS(=O)(=O)[O-].O=C(/C=C/c1ccc(O)c(O)c1)NCCCCCCCCCC[P+](c1ccccc1)(c1ccccc1)c1ccccc1"
target_or_system = "SH-SY5Y"
result = "inactive"


###

protocol-notes: Cytotoxicity against human HepG2 cells assessed as cell viability incubated for 24 hrs
Format: toxicity, cell-based
condition-summary: read-out: Activity
outcome-measure: viability at 24 h

[[record]]
structure_smiles_string = "CS(=O)(=O)[O-].O=C(/C=C/c1ccc(O)c(O)c1)NCCCCCCCCCC[n+]1ccc2ccccc2c1"
result = "≥ 85%"

[[record]]
structure_smiles_string = "CS(=O)(=O)[O-].Cc1cc[n+](CCCCCCCCCCNC(=O)/C=C/c2ccc(O)c(O)c2)cc1"
result = "≥ 85%"

[[record]]
structure_smiles_string = "CS(=O)(=O)[O-].Cn1cc[n+](CCCCCCCCCCNC(=O)/C=C/c2ccc(O)c(O)c2)c1"
result = "≥ 85%"


###

protocol-notes: Dissociation constant, pKa of the compound by UV-vis spectrophotometric analysis
Type: physicochemical
Recorded pKa values for a group of compounds are listed next.
outcome-measure: pKa

[[record]]
structure_smiles_string = "CS(=O)(=O)[O-].O=C(/C=C/c1ccc(O)c(O)c1)NCCCCCCCCCC[P+](c1ccccc1)(c1ccccc1)c1ccccc1"
outcome_measure = "pKa"
numeric_value = 8.61

[[record]]
structure_smiles_string = "CS(=O)(=O)[O-].O=C(/C=C/c1ccc(O)c(O)c1)NCCCCCCCCCC[n+]1ccc2ccccc2c1"
outcome_measure = "pKa"
numeric_value = 8.45


Origin of the recorded values: ChEMBL document CHEMBL5316331
